Hey, just so you know, these numbers are from patent US10150737B2.

Catalogue of compounds with associated efficacy
System: Myzus persicae
Assay: Myzus persicae - spray test
Assay type: in vivo
Details: application rate 100 g/ha; Chinese cabbage leaf discs; after 6 days
Reported Property: efficacy (%)

[[record]]
compound = "Cc1cc(C(F)(C(F)(F)F)C(F)(F)F)cc(C(F)(F)F)c1-n1cc(-c2cnc(C)c(C(=O)N(C)C3(C#N)CC3)c2)cn1 [I-T3-123]"
reported_property = "efficacy"
recorded_number = 100

[[record]]
compound = "CCc1cc(C(F)(F)C(F)(F)F)cc(C)c1-n1cc(-c2ccc(Cl)c(C(=O)NC3CC3)c2)cn1 [I-T3-81]"
reported_property = "efficacy"
recorded_number = 90

[[record]]
compound = "Cc1cc(C(F)(C(F)(F)F)C(F)(F)F)cc(C(F)(F)F)c1-n1cc(-c2ccc(Cl)c(C(=O)NC3CSC3)c2)cn1 [I-T3-85]"
reported_property = "efficacy"
recorded_number = 90

